Values compiled from PubChem BioAssay (NCI).

- Tested on: U251 CNS
- protocol: NCI tumour cell line growth inhibition, 48 h
This listing pairs molecules with measured TGI.

Some molecules with known TGI results, for comparison:
molecule	TGI
CSc1nc2nc(-c3ccccc3)c(C)c-2c2n1C(C)C(=O)N2 (centres undefined)	> 100 µM
CN=c1sc2c(n1C)C(=O)c1ccccc1C2=O	10.5 µM
COC(=O)C1=C(C(=O)OC)C2(c3ccccc3)OC1(c1ccccc1)c1cc3ccccc3cc12	18.8 µM
N#CC1CC(c2ccccc2)Nc2cc(Cl)ccc2N1 (centres undefined)	> 100 µM
C=CCON(C(=O)OC(C)(C)C)C(C)(C)C	> 100 µM
Cc1cnc(C(=O)NNc2nc3sc4c(c3c(=O)[nH]2)C(C)CCC4)cn1 (centres undefined)	> 100 µM
COc1ccccc1C1c2cc3c(cc2OC2(OC)COC(=O)C12)OCO3 (centres undefined)	> 100 µM
CC(=O)c1ccc(Nc2c3c(nc4ccccc24)CCCC3)cc1	> 59.2 µM

# TGI of CNCc1ccc(-c2cc(-c3nc(-c4ccc(S(=O)(=O)C(C)C)cc4)cnc3N)on2)cc1 = 21.5 µM

# TGI of O=NN(CCCl)C(=O)NC1CCC(CC(=O)O)CC1 (centres undefined) = > 100 µM

# TGI of COc1cc2nc(Cl)nc(NS(=O)(=O)c3cc4ccccc4s3)c2cc1OC = 68.5 µM

# TGI of COc1cc(/C=C/c2csnn2)cc(OC)c1OC = > 100 µM

# TGI of CC1(C)O[C@@H]2[C@@H](COC(C)(C)O[C@H]2C2SCCCS2)O1 = > 100 µM

# TGI of NC1=NC(Cn2nc(-c3ccccc3)c3ccccc3c2=O)=NNC(=O)N1 = > 100 µM

# TGI of CCCC(=O)CC(C)C(=O)C(=O)NC12CC3CC(CC(C3)C1)C2 (centres undefined) = > 100 µM

# TGI of O=C(Nc1ccc(OC(F)(F)Cl)cc1)c1cnc(N2CC[C@@H](O)C2)c(-c2ccn[nH]2)c1 = 26.6 µM

----------
This listing pairs molecules with measured GI50.
- Tested on: EKVX NSCLC
- protocol: NCI tumour cell line growth inhibition, 48 h

Some molecules with known GI50 results, for comparison:
molecule	target	GI50
CC(=O)NC1C(O[C@H]2C[C@H]3[C@@H]4CC=C5C[C@@H](O)CC[C@]5(C)[C@H]4CC[C@]3(C)[C@H]2[C@H](C)C(=O)CCC(C)C)OCC(O)C1O (some centres undefined)	EKVX NSCLC	1.97 µM
O=C(COc1ccc(/C=C2\Oc3ccccc3C2=O)cc1)Nc1nc2ccccc2s1	EKVX NSCLC	26.5 µM
Nc1nccc(-c2c(-c3ccc(F)cc3)nn3cc(C(F)(F)F)ccc23)n1	EKVX NSCLC	> 25 µM

# input for lookup
# GI50 of Fc1ccc(NC(c2ccc(F)cc2)C2CCN(CCCCc3ccccc3)CC2)cc1 (centres undefined) = 1.7 µM

----------
- Test system: RPMI-8226 leukemia
- protocol: NCI tumour cell line growth inhibition, 48 h; in the data active = GI50 below about 0.43 µM; inactive = the rest
Form entry, call: pick from active, inactive

Check out these entries, answers already filled in.
compound	class.label
CCc1ccc(Nc2cc(C)c3ccc(O)cc3n2)cc1	inactive
COc1ccc(C(O)c2cc3c(N)c(C(=O)Nc4cccc5ccccc45)sc3nc2C)cc1 (stereo not given)	inactive
CCSCC1CC(O)(c2ccccc2)C(c2ccccc2)C(c2ccc(F)cc2)O1 (stereo not given)	inactive
COc1ccccc1CNCCN1C(=O)c2ccc3c4c(ccc(c24)C1=O)C(=O)N(CCNCc1ccccc1OC)C3=O	active
O=C(Nc1ccc(OC(F)(F)Cl)cc1)c1cnc(N2CC[C@@H](O)C2)c(-c2ccn[nH]2)c1	inactive

Hello, I am checking results. What call was entered for C=C(C#N)C(=O)OCC(CC)CC.C=C(C#N)C(=O)OCC(CC)CC.CS(C)=O.CS(C)=O.Nc1c(N=Nc2ccc(-c3ccc(N=Nc4cc(S(=O)(=O)[O-])c5ccccc5c4N)cc3)cc2)cc(S(=O)(=O)[O-])c2ccccc12.[Pt+2] ? inactive

Hello, I am checking results. What call was entered for Nc1nccc(-c2c(-c3ccc(F)cc3)nn3cc(C(F)(F)F)ccc23)n1 ? inactive

Hello, I am checking results. What call was entered for COc1ccc(-c2cc(/C=C/C(=O)c3ccc(N)cc3)[nH]n2)cc1OC ? inactive

Hello, I am checking results. What call was entered for Cc1cnc(C(=O)NNc2nc3sc4c(c3c(=O)[nH]2)C(C)CCC4)cn1 (stereo not given) ? inactive

Hello, I am checking results. What call was entered for O=C(O)CN(CCN(CC(=O)O)CC(=O)O)CC(=O)O.[Mn+2] ? inactive

----------
- Test system: RXF 393 renal
- protocol: NCI tumour cell line growth inhibition, 48 h; in the data active means GI50 below about 0.43 µM; inactive means the rest
Form entry, call: pick from label 1 (active), label 0 (inactive)

Check out these entries, answers already filled in.
compound	class.label
O=C(c1cccs1)c1c(C(F)(F)F)n([O-])c2cc(Cl)c(Cl)cc2[n+]1=O	label 0
CN(C)c1ccc(-c2cc(-c3ccc(Nc4nc(Nc5ccc(Cl)cc5)nc(Nc5ccc(Cl)cc5)n4)cc3)nc(N)c2C#N)cc1	label 0
C=C(C#N)C(=O)OCC(CC)CC.C=C(C#N)C(=O)OCC(CC)CC.CS(C)=O.CS(C)=O.Nc1c(N=Nc2ccc(-c3ccc(N=Nc4cc(S(=O)(=O)[O-])c5ccccc5c4N)cc3)cc2)cc(S(=O)(=O)[O-])c2ccccc12.[Pt+2]	label 0
S=C1SCN(Cc2ccccc2)CN1Cc1ccco1	label 0
CCCCCC(=O)O[C@]1(C(C)=O)CCC2C3CCC4=CC(=O)CC[C@]4(C)C3CC[C@@]21C (stereo partly drawn)	label 0

Hello, I am checking results. What call was entered for Cc1cnc(C(=O)NNc2nc3sc4c(c3c(=O)[nH]2)C(C)CCC4)cn1 (stereo not drawn) ? label 0

Hello, I am checking results. What call was entered for O=C1c2cc3c(cc2-c2c1c1ccc(Cl)cc1c(=O)n2C[C@H](O)CO)OCO3 ? label 1

Hello, I am checking results. What call was entered for COCCN(Cc1ccc(F)cc1)c1ccc(CO)c(Cl)c1 ? label 0

----------
- Tested on: PC-3 prostate
- protocol: NCI tumour cell line growth inhibition, 48 h
This listing pairs molecules with measured TGI.

Some molecules with known TGI results, for comparison:
molecule	obs.value
C=CCON(C(=O)OC(C)(C)C)C(C)(C)C	> 100 µM
CCCCCC/C=C\CCCCCCCCC(=O)c1cccc(OC)c1OC	> 100 µM

# TGI of O=C1CC(O)c2cscc21 (stereo unspecified) = > 100 µM

# TGI of O=C(COc1ccc(/C=C2\Oc3ccccc3C2=O)cc1)Nc1nc2ccccc2s1 = > 70.6 µM

# TGI of Cc1ccc(S(=O)(=O)N(CC(O)COc2ccccc2)c2c(F)cccc2F)cc1 (stereo unspecified) = 36.9 µM

# TGI of COC12C(COC(=O)NCCO)C3=C(C(=O)C(C)=C(N)C3=O)N1CC1NC12 (stereo unspecified) = 248 µM

# TGI of Cc1[nH]n(-c2nc3c(c(=O)[nH]2)CCCC3)c(=O)c1CCO = > 100 µM

# TGI of CCc1ccc(Nc2cc(C)c3ccc(O)cc3n2)cc1 = 18.5 µM

# TGI of COc1ccc2nc3c(c(N)c2c1)C1CCC3C1(C)C (stereo unspecified) = > 100 µM

# TGI of Nc1nccc(-c2c(-c3ccc(F)cc3)nn3cc(C(F)(F)F)ccc23)n1 = > 25 µM

----------
This listing pairs molecules with measured TGI.
- System: PC-3 prostate
- protocol: NCI tumour cell line growth inhibition, 48 h

molecule	target	TGI
COc1ccc(OC)c2sc(N3C(=O)/C(=C/c4cccc(Oc5ccccc5)c4)N=C3c3ccccc3)nc12	PC-3 prostate	> 100 µM
COc1ccc(Nc2cnc3cc(N)cc(N)c3n2)cc1	PC-3 prostate	27.9 µM
Cc1ccc(S(=O)(=O)NCCCCC(N)C(=O)O)cc1 (stereo not drawn)	PC-3 prostate	> 100 µM
Cc1cccc2sc(NC(=O)NS(=O)(=O)n3cnc4ccccc43)nc12	PC-3 prostate	95.3 µM
COc1ccc(C(O)c2cc3c(N)c(C(=O)Nc4cccc5ccccc45)sc3nc2C)cc1 (stereo not drawn)	PC-3 prostate	> 100 µM

# TGI of Cc1cc(Cl)nc(N(CCNc2ccnc3cc(Cl)ccc23)Cc2ccco2)n1 = 5.49 µM

# TGI of CCOc1cnc(C(O)(c2ccccc2)c2ccccc2)o1 = > 100 µM

# TGI of CCOC(=O)C1(C/C=C\CBr)CCCC1=O (stereo not drawn) = > 100 µM

# TGI of CC(=O)NC1C(O[C@H]2C[C@H]3[C@@H]4CC=C5C[C@@H](O)CC[C@]5(C)[C@H]4CC[C@]3(C)[C@H]2[C@H](C)C(=O)CCC(C)C)OCC(O)C1O (stereo partly drawn) = 10.3 µM

# TGI of CCCCCCCCCCCCCCNC(=O)Nc1ccc(Cl)c(Cl)c1 = > 37.1 µM
